- Tested system: Adenosine receptor A3 (Homo sapiens)
- Sequence (P0DMS8 whole entry): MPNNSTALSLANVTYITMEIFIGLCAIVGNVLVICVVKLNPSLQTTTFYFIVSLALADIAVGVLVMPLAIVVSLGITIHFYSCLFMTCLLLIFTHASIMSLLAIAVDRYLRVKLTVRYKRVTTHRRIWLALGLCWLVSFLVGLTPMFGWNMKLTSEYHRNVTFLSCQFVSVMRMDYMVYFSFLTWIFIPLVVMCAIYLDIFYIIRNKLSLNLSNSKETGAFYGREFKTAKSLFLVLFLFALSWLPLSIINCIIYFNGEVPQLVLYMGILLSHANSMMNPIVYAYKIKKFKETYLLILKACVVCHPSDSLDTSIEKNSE
- Measurement notes: Inhibition of human A3 adenosine receptor transfected in CHO cells assessed as inhibition of forskolin-induced cyclic AMP production after 10 mins by competitive protein binding assay in presence of CI-IB-MECA
Measured metric: pIC50
Hey, just a heads up that pIC50 is the negative log base 10 of the concentration in molar.

The cases that follow already have their pIC50 on record.
{"Smiles record": "CC(=O)Nc1nc(-c2ccccc2)nc2cn(-c3ccccc3)nc12", "Result number": 6.99}
{"Smiles record": "Cc1nc(N(C(=O)c2ccccc2)C(=O)c2ccccc2)c2nn(-c3ccccc3)cc2n1", "Result number": 6.94}
{"Smiles record": "COc1ccc(-n2cc3nc(C)nc(NC(=O)c4ccccc4)c3n2)cc1", "Result number": 6.89}
{"Smiles record": "COc1ccc(-n2cc3nc(-c4ccccc4)nc(NC(=O)c4ccccc4)c3n2)cc1", "Result number": 7.20}
{"Smiles record": "COc1ccc(-n2cc3nc(-c4ccccc4)nc(NC(=O)Cc4ccccc4)c3n2)cc1", "Result number": 7.10}

Recorded pIC50 for O=C(Nc1nc(-c2ccccc2)nc2cn(-c3ccccc3)nc12)c1ccccc1 , please?
7.19
